B1: Osa-1-4 twister ribozyme (parent)
chain: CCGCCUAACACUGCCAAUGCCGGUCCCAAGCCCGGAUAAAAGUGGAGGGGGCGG

- Variants of: B1
- Assay name: self-cleavage, relative activity (ratio to wild type); higher = more cleavage; co-transcriptional

| Variant code | self-cleavage |
| --- | --- |
| A16C C26G | 0.1 |
| A29C C31A | 0.02 |
| C26A G13A | 0.02 |
| C32A U24A | 0.06 |
| A39U G45A | 0.12 |
| G51C U24A | 0.04 |
| A10C G45U | 0.02 |
| C27G G53U | 0.03 |
| A40G C31A | 0.03 |
| G13A G51A | 0.05 |
| A46C C26G | 0.02 |
